- Test system: E. faecalis MSU#10
- experimentalDetails: Bacterial viability assay
- Format: cell-based, Enterococcus faecalis
- testConditions: Enterococcus faecalis, 1 h; E. faecalis MSU#10; one hour in PBS, CFU; ± SEM; read-out: IC50
- Method: Supplementary file pone.0097742.s003.doc: Table S1 Bacterial viability assays. Bacteria were grown at 37°C to mid-log phase (OD600 ∼0.4). […] IC50s were calculated from graphs of CFU as a function of compound concentration. […] Bacterial viability assays. […] IC50s were calculated from graphs of CFU as a function of compound concentration. […]
assayMetric: IC50

Field: example entries. Status: answers known.
molecule	IC50
NCCCNCCCCNCCCN	> 100 µM
N=C(NCCCCCCNc1nc(NCCCCCCNC(=N)Nc2ccccc2)nc(NCCCCCCNC(=N)Nc2ccccc2)n1)Nc1ccccc1 [THAM-3ΦG, Trishexylaminomelamine trisphenylguanide]	2.8 µM

Next molecule, please.
I am curious: what IC50 value has been reported for NCCCCNCCCN ?
> 100 µM

====

Listed below: Relative to chlorhexidine (factor by which cytotoxicity was reduced) values for each entry.
- Tested on: human breast cancer cell line MDA-MB-231
- experimentalDetails: Cell toxicity assay (MTS)
- Type: cell-based
- testConditions: MDA-231

Field: example entries. Status: answers known.
compound	result
N=C(N)NCCCCCCNc1nc(NCCCCCCNC(=N)N)nc(NCCCCCCNC(=N)N)n1	29
N=C(NCCCCN(CCCNC(=N)Nc1ccccc1)C(=N)Nc1ccccc1)Nc1ccccc1	170

Next compound, please.
I am curious: what Relative to chlorhexidine (factor by which cytotoxicity was reduced) value has been reported for N=C(NCCCN(CCCCN(CCCNC(=N)Nc1ccccc1)C(=N)Nc1ccccc1)C(=N)Nc1ccccc1)Nc1ccccc1 ?
>43

====

- System: HaCaT human keratinocytes
- experimentalDetails: Cell toxicity assay (MTS)
- Type: cell-based
- testConditions: MTS assay, concentration which killed 50% of the cells
Listed below: CC50 values for each entry.
Output spec: scalar in µg/mL, unitless text.

Field: example entries. Status: answers known.
smilesCode	measuredTarget	CC50 / µg/mL
NCCCCCCNc1nc(NCCCCCCN)nc(NCCCCCCN)n1	HaCaT human keratinocytes	200
N=C(NCCCCCCCCNc1nc(NCCCCCCCCN)nc(NCCCCCCCCNC(=N)Nc2ccccc2)n1)Nc1ccccc1	HaCaT human keratinocytes	3.1
N=C(NCCCCCCCCNc1nc(NCCCCCCCCNC(=N)Nc2ccccc2)nc(NCCCCCCCCNC(=N)Nc2ccccc2)n1)Nc1ccccc1	HaCaT human keratinocytes	2.4

I am curious: what CC50 value has been reported for N=C(N)NCCCCCCNc1nc(NCCCCCCNC(=N)N)nc(NCCCCCCNC(=N)N)n1 ?
63

Next entry: NCCCCCCCCNc1nc(NCCCCCCCCN)nc(NCCCCCCCCN)n1
4.1

Next entry: N=C(NCCCCN(CCCNC(=N)Nc1ccccc1)C(=N)Nc1ccccc1)Nc1ccccc1
400

Next entry: N=C(N)NCCCCCCCCNc1nc(NCCCCCCCCNC(=N)N)nc(NCCCCCCCCNC(=N)N)n1
3.6

Next entry: N=C(NCCCN(CCCCN(CCCNC(=N)Nc1ccccc1)C(=N)Nc1ccccc1)C(=N)Nc1ccccc1)Nc1ccccc1
110

====

Listed below: pIC50 values for each entry.
- Test system: S. aureus RN4220
- experimentalDetails: Bacterial viability assay
- Assay type: cell-based, Staphylococcus aureus
- testConditions: Staphylococcus aureus, 1 h, one hour in PBS, CFU, ± SEM
- Procedure: Supplementary file pone.0097742.s003.doc: Table S1 Bacterial viability assays. Bacteria were grown at 37°C to mid-log phase (OD600 ∼0.4). […] IC50s were calculated from graphs of CFU as a function of compound concentration. […] Bacterial viability assays. […] IC50s were calculated from graphs of CFU as a function of compound concentration. […]
pIC50 here: minus log base 10 of the concentration, concentration in moles per litre.

I am curious: what pIC50 value has been reported for [H]/N=C(\N/C(=N/[H])NCCCCCCNC(=N)NC(=N)Nc1ccc(Cl)cc1)Nc1ccc(Cl)cc1 [Chlorhexidine, chlorhexidine, reference compound] ?
6.07

Next entry: N=C(NCCCCCCNc1nc(NCCCCCCNC(=N)Nc2ccccc2)nc(NCCCCCCNC(=N)Nc2ccccc2)n1)Nc1ccccc1 [THAM-3ΦG, Trishexylaminomelamine trisphenylguanide]
5.77

====

- System: A. baumannii ATCC 19606
- experimentalDetails: Bacterial viability assay
- Type: cell-based, Acinetobacter baumannii
- testConditions: one hour in PBS, CFU, ± SEM
Listed below: log10(IC50) values for each entry.
Recall that a logarithmic scale is used here: each number is log10 of IC50 in µM.

smilesCode	log10(IC50)
N=C(NCCCCCCCCNc1nc(NCCCCCCCCNC(=N)Nc2ccccc2)nc(NCCCCCCCCNC(=N)Nc2ccccc2)n1)Nc1ccccc1	-0.35
N=C(N)NCCCCCCNc1nc(NCCCCCCNC(=N)N)nc(NCCCCCCNC(=N)N)n1	1.36
NCCCCCCCCNc1nc(NCCCCCCCCN)nc(NCCCCCCCCN)n1	0.59
N=C(N)NCCCCCCCCNc1nc(NCCCCCCCCNC(=N)N)nc(NCCCCCCCCNC(=N)N)n1	0.41

Next compound, please.
I am curious: what log10(IC50) value has been reported for N=C(NCCCCCCCCNc1nc(NCCCCCCCCN)nc(NCCCCCCCCNC(=N)Nc2ccccc2)n1)Nc1ccccc1 ?
-0.19

====

Listed below: IC50 values for each entry.
- Tested on: A. baumannii ATCC BAA1605
- experimentalDetails: Bacterial viability assay
- Format: cell-based, Acinetobacter baumannii
- testConditions: one hour in PBS, CFU, ± SEM
Output spec: scalar in µM, unitless text.

Field: example entries. Status: answers known.
smilesCode	IC50 [µM]
N=C(NCCCCCCCCNc1nc(NCCCCCCCCNC(=N)Nc2ccccc2)nc(NCCCCCCCCNC(=N)Nc2ccccc2)n1)Nc1ccccc1	1.7
N=C(N)NCCCCCCNc1nc(NCCCCCCNC(=N)N)nc(NCCCCCCNC(=N)N)n1	14
N=C(N)NCCCCCCCCNc1nc(NCCCCCCCCNC(=N)N)nc(NCCCCCCCCNC(=N)N)n1	0.92
N=C(NCCCCCCCCNc1nc(NCCCCCCCCN)nc(NCCCCCCCCNC(=N)Nc2ccccc2)n1)Nc1ccccc1	0.96

Next molecule, please.
I am curious: what IC50 value has been reported for NCCCCCCCCNc1nc(NCCCCCCCCN)nc(NCCCCCCCCN)n1 ?
1.3

====

- System: human breast cancer cell line MDA-MB-231
- experimentalDetails: Cell toxicity assay (MTS)
- Format: cell-based
- testConditions: MDA-231; MTS assay; concentration which killed 50% of the cells
assayMetric: CC50 (µg/mL)
Output spec: scalar in µg/mL, unitless text.

I am curious: what CC50 value has been reported for N=C(N)NCCCCCCNc1nc(NCCCCCCNC(=N)N)nc(NCCCCCCNC(=N)N)n1 ?
74

Next entry: N=C(NCCCCN(CCCNC(=N)Nc1ccccc1)C(=N)Nc1ccccc1)Nc1ccccc1
430

====

Listed below: Relative to chlorhexidine (factor by which cytotoxicity was reduced) values for each entry.
- System: human breast cancer cell line MDA-MB-231
- experimentalDetails: Cell toxicity assay (MTS)
- Type: cell-based
- testConditions: MDA-231

Field: example entries. Status: answers known.
compound	result
N=C(NCCCCCCNc1nc(NCCCCCCNC(=N)Nc2ccccc2)nc(NCCCCCCNC(=N)Nc2ccccc2)n1)Nc1ccccc1 [THAM-3ΦG, Trishexylaminomelamine trisphenylguanide]	3.0
NCCCCNCCCN [Spermidine]	8.5
NCCCCCCNc1nc(NCCCCCCN)nc(NCCCCCCN)n1 [THAM]	>290

Next compound, please.
I am curious: what Relative to chlorhexidine (factor by which cytotoxicity was reduced) value has been reported for NCCCNCCCCNCCCN [Spermine] ?
3.7

====

Listed below: pIC50 values for each entry.
- System: A. baumannii ATCC 19606
- experimentalDetails: Bacterial viability assay
- Assay type: cell-based, Acinetobacter baumannii
- testConditions: one hour in PBS, CFU, ± SEM
pIC50: −log10 of the molar value.

molecule	pIC50
N=C(NCCCN(CCCCN(CCCNC(=N)Nc1ccccc1)C(=N)Nc1ccccc1)C(=N)Nc1ccccc1)Nc1ccccc1 [Spermine-4ΦG]	≤ 4.00
N=C(NCCCCN(CCCNC(=N)Nc1ccccc1)C(=N)Nc1ccccc1)Nc1ccccc1 [Spermidine-3ΦG]	< 4.00

Next molecule, please.
I am curious: what pIC50 value has been reported for NCCCCCCNc1nc(NCCCCCCN)nc(NCCCCCCN)n1 [THAM] ?
< 4.00

====

- System: A. baumannii ATCC BAA1605
- experimentalDetails: Bacterial viability assay
- Assay type: cell-based, Acinetobacter baumannii
- testConditions: one hour in PBS, CFU, ± SEM
assayMetric: IC50

Field: example entries. Status: answers known.
smilesCode	IC50
NCCCCCCNc1nc(NCCCCCCN)nc(NCCCCCCN)n1	> 100 µM
N=C(NCCCCN(CCCNC(=N)Nc1ccccc1)C(=N)Nc1ccccc1)Nc1ccccc1	> 100 µM

For A. baumannii ATCC BAA1605, provide IC50 of N=C(NCCCN(CCCCN(CCCNC(=N)Nc1ccccc1)C(=N)Nc1ccccc1)C(=N)Nc1ccccc1)Nc1ccccc1 please.
≥ 100 µM

All figures here come from paper PMC4026384.
